- cond: PAMPA
Positions of bridges follow the written chain, without caps; N, C: chain ends. Non-standard residues stand in square brackets, D forms with d. Residues, ends and D or L forms follow the SMILES beside them. S5 = C=CCCC[C@](C)(N)C(=O)O
// values below are reported % Retention
result.type: % Retention (%)

1) CNC(=O)[C@H](CC(N)=O)NC(=O)[C@H](CC(N)=O)NC(=O)[C@H](CC(C)C)NC(=O)[C@H](CC(C)C)NC(=O)[C@H](CC1CC1)NC(=O)[C@]1(C)CCCC=CC[C@]2(CCCN2C(C)=O)C(=O)N[C@@H](C)C(=O)N[C@@H](CC(C)C)C(=O)N1 (single isomer, unassigned) [PLL7-11]    103
2) CNC(=O)[C@H](CC(=O)O)NC(=O)[C@H](CCC(N)=O)NC(=O)[C@H](CC(C)C)NC(=O)[C@H](CC(C)C)NC(=O)[C@H](Cc1ccc(O)cc1)NC(=O)[C@]1(C)CCCC=CC[C@]2(CCCN2C(C)=O)C(=O)O[C@@H](CC(C)C)C(=O)N[C@@H](CC(C)C)C(=O)N1 (single isomer, unassigned) [PLL7-7 variant 2]    64
3) CC(=O)N1CCC[C@]12CC=CCCC[C@@](C)(C(=O)N[C@@H](Cc1ccc(O)cc1)C(=O)N[C@@H](CC(C)C)C(=O)N[C@@H](CC(C)C)C(=O)N[C@@H](CC(=O)O)C(N)=O)NC(=O)[C@H](CC(C)C)NC(=O)[C@H](CC(C)C)NC2=O (single isomer, unassigned) [PLL4-10 variant 3, Ac-PL3-Leu-Leu-S5-Tyr-Leu-Leu-Asp-NH2]    106
4) CNC(=O)[C@H](CC(=O)O)NC(=O)[C@H](Cc1c[nH]cn1)NC(=O)[C@H](CC(C)C)NC(=O)[C@H](CC(C)C)NC(=O)[C@H](CCCNC(=N)N)NC(=O)[C@]1(C)CCCC=CCCC[C@](C)(NC(C)=O)C(=O)N[C@@H](C)C(=O)N[C@@H](CC(C)C)C(=O)N[C@@H](CC(C)C)C(=O)N1 [PLL7-9 variant 4] (Ac-[S5]ALL[S5]RLLHD-NHMe; staple 1-5)    101

* * *

- method.summary: in vitro
- Design: dose or concentration left out as unconfirmed
- cond: PAMPA, pH 7.4, PAMPA Pe
Starred links: 1 amine or outer side, 2 acyl side, 3 side chain; linkers in the order of their positions; H or OH if unused. Positions of bridges follow the written chain, without caps; N, C: chain ends. Non-standard residues stand in square brackets, D forms with d. Residues, ends and D or L forms follow the SMILES beside them. X1 = O=C([C@]1(CC=[*:3])CCCN1[*:1])[*:2]; αAllylPro = C=CC[C@@]1(C(=O)O)CCCN1; S5 = C=CCCC[C@](C)(N)C(=O)O
result.type: Papp at 5 h (×10⁻⁶ cm/s)

1. CNC(=O)[C@H](CC(=O)O)NC(=O)[C@H](CC(=O)O)NC(=O)[C@H](CC(C)C)NC(=O)[C@H](CC(C)C)NC(=O)[C@H](Cc1ccc(O)cc1)NC(=O)[C@]1(C)CCCC=CC[C@]2(CCCN2)C(=O)N[C@@H](CC(C)C)C(=O)N[C@@H](CC(C)C)C(=O)N1 (single isomer, unassigned)    0.4
2. CC(=O)N1CCC[C@]12CC=CCCC[C@@](C)(C(=O)N[C@@H](Cc1ccc(O)cc1)C(=O)N[C@@H](CC(C)C)C(=O)N[C@@H](CC(C)C)C(=O)N[C@@H](CC(=O)O)C(N)=O)NC(=O)[C@H](CC(C)C)NC(=O)[C@H](CC(C)C)NC2=O (single isomer, unassigned)    0.3
3. CNC(=O)[C@H](Cc1ccc(O)cc1)NC(=O)[C@@H](NC(=O)[C@H](CC(C)C)NC(=O)[C@H](CC(C)C)NC(=O)[C@H](CC(N)=O)NC(=O)[C@]1(C)CCCC=CC[C@]2(CCCN2C(C)=O)C(=O)N[C@@H](CCCCN)C(=O)N[C@@H](CC(C)C)C(=O)N1)[C@@H](C)O [PLL4-5] (Ac-[X1]KL[S5]NLLTY-NHMe; staple 1-4)    0.7
4. CNC(=O)[C@H](CC(=O)O)NC(=O)[C@H](CC(=O)O)NC(=O)[C@H](CC(C)C)NC(=O)[C@H](CC(C)C)NC(=O)[C@H](Cc1ccc(O)cc1)NC(=O)[C@]1(C)CCCC=CC[C@]2(CCCN2C(C)=O)C(=O)N[C@@H]([C@@H](C)O)C(=O)N[C@@H](CC(C)C)C(=O)N1 (single isomer, unassigned)    2.1
5. CNC(=O)[C@H](CC(=O)O)NC(=O)[C@H](CC(C)C)NC(=O)[C@H](CC(C)C)NC(=O)[C@H](Cc1ccc(O)cc1)NC(=O)[C@]1(C)CCCC=CC[C@]2(CCCN2C(C)=O)C(=O)N[C@@H](CC(C)C)C(=O)N[C@@H](CC(C)C)C(=O)N1 [PLL4-10, Ac-PL3-Leu-Leu-S5-Tyr-Leu-Leu-Asp-NHMe] (Ac-[X1]LL[S5]YLLD-NHMe; staple 1-4)    0.6
6. C=CCCC[C@](C)(NC(=O)[C@H](CC(C)C)NC(=O)[C@H](CC(C)C)NC(=O)[C@]1(CC=C)CCCN1C(C)=O)C(=O)N[C@@H](Cc1ccc(O)cc1)C(=O)N[C@@H](CC(C)C)C(=O)N[C@@H](CC(C)C)C(=O)N[C@@H](CC(=O)O)C(=O)N[C@@H](CC(=O)O)C(=O)NC [PLL5-2 variant 5] (Ac-[αAllylPro]LL[S5]YLLDD-NHMe)    1.7
7. CNC(=O)[C@H](Cc1ccc(O)cc1)NC(=O)[C@H](CCC(N)=O)NC(=O)[C@H](CC(C)C)NC(=O)[C@H](CC(C)C)NC(=O)[C@]1(C)CCCC=CC[C@]2(CCCN2C(C)=O)C(=O)N[C@@H](CC(C)C)C(=O)N[C@@H](Cc2c[nH]cn2)C(=O)N1 (single isomer, unassigned)    0.3
8. CC(=O)N1CCC[C@]12CC=CCCC[C@@](C)(C(=O)N[C@@H](Cc1c[nH]cn1)C(=O)N[C@@H](CC(C)C)C(=O)N[C@@H](CC(C)C)C(=O)N[C@@H](CC(N)=O)C(N)=O)NC(=O)[C@H](CC(C)C)NC(=O)[C@H](C)NC2=O (single isomer, unassigned)    0.5
9. CNC(=O)[C@H](CC(=O)O)NC(=O)[C@H](CCC(N)=O)NC(=O)[C@H](CC(C)C)NC(=O)[C@H](CC(C)C)NC(=O)[C@H](Cc1ccc(O)cc1)NC(=O)[C@]1(C)CCCC=CC[C@]2(CCCN2)C(=O)N[C@@H](CC2CC2)C(=O)N[C@@H](CC(C)C)C(=O)N1 (single isomer, unassigned)    0.4

* * *

// values below are reported chromatographic logD
- method.summary: CHI Log D measurement (chromatographic hydrophobicity index)
- cond: pH 7.4
Non-standard residues stand in square brackets, D forms with d. Residues, ends and D or L forms follow the SMILES beside them. αAllylPro = C=CC[C@@]1(C(=O)O)CCCN1; S5 = C=CCCC[C@](C)(N)C(=O)O
result.type: chromatographic logD

1. CNC(=O)[C@H](Cc1ccc(O)cc1)NC(=O)[C@@H](NC(=O)[C@H](CC(C)C)NC(=O)[C@H](CC(C)C)NC(=O)[C@H](CC(N)=O)NC(=O)[C@]1(C)CCCC=CC[C@]2(CCCN2)C(=O)N[C@@H](CCCCN)C(=O)N[C@@H](CC(C)C)C(=O)N1)[C@@H](C)O (single isomer, unassigned)    1.5
2. C=CCCC[C@](C)(NC(=O)[C@H](CC(C)C)NC(=O)[C@H](C)NC(=O)[C@]1(CC=C)CCCN1C(C)=O)C(=O)N[C@@H](Cc1c[nH]cn1)C(=O)N[C@@H](CC(C)C)C(=O)N[C@@H](CC(C)C)C(=O)N[C@@H](CC(N)=O)C(=O)NC [PLL7-20 variant 5, Ac-PL3-Ala-Leu-S5-His-Leu-Leu-Asn-NHMe] (Ac-[αAllylPro]AL[S5]HLLN-NHMe)    2.7
3. CC(=O)N1CCC[C@]12CC=CCCC[C@@](C)(C(=O)N[C@@H](CC(N)=O)C(=O)N[C@@H](CC(C)C)C(=O)N[C@@H](CC(C)C)C(=O)N[C@H](C(=O)N[C@@H](Cc1ccc(O)cc1)C(N)=O)[C@@H](C)O)NC(=O)[C@H](CC(C)C)NC(=O)[C@H](CCCCN)NC2=O (single isomer, unassigned)    1.6

* * *

- method.summary: CHI Log D measurement (chromatographic hydrophobicity index)
- cond: reverse-phase HPLC, Phenomenex Gemini C-18 column, pH 7.4
Starred links: 1 amine or outer side, 2 acyl side, 3 side chain; linkers in the order of their positions; H or OH if unused. Positions of bridges follow the written chain, without caps; N, C: chain ends. Non-standard residues stand in square brackets, D forms with d. Residues, ends and D or L forms follow the SMILES beside them. X1 = O=C([C@]1(CC=[*:3])CCCN1[*:1])[*:2]; Ala(cPr) = N[C@@H](CC1CC1)C(=O)O; S5 = C=CCCC[C@](C)(N)C(=O)O
// values below are reported chromatographic logD
result.type: chromatographic logD

1. CNC(=O)[C@H](Cc1ccc(O)cc1)NC(=O)[C@@H](NC(=O)[C@H](CC(C)C)NC(=O)[C@H](CC(C)C)NC(=O)[C@H](CC(N)=O)NC(=O)[C@]1(C)CCCC=CC[C@]2(CCCN2C(C)=O)C(=O)N[C@@H](CCCCN)C(=O)N[C@@H](CC(C)C)C(=O)N1)[C@@H](C)O [PLL4-5] (Ac-[X1]KL[S5]NLLTY-NHMe; staple 1-4)    1.8
2. CNC(=O)[C@H](Cc1ccc(O)cc1)NC(=O)[C@H](CCC(N)=O)NC(=O)[C@H](CC(C)C)NC(=O)[C@H](CC(C)C)NC(=O)[C@H](Cc1ccc(O)cc1)NC(=O)[C@]1(C)CCCC=CC[C@]2(CCCN2C(C)=O)C(=O)N[C@@H](CC(C)C)C(=O)N[C@@H](CC(C)C)C(=O)N1 [PLL5-3] (Ac-[X1]LL[S5]YLLQY-NHMe; staple 1-4)    3.5
3. CNC(=O)[C@H](CC(=O)O)NC(=O)[C@H](CCC(N)=O)NC(=O)[C@H](CC(C)C)NC(=O)[C@H](CC(C)C)NC(=O)[C@H](Cc1ccc(O)cc1)NC(=O)[C@]1(C)CCCC=CC[C@]2(CCCN2C(C)=O)C(=O)N[C@@H](CC2CC2)C(=O)N[C@@H](CC(C)C)C(=O)N1 [PLL7-7] (Ac-[X1][Ala(cPr)]L[S5]YLLQD-NHMe; staple 1-4)    2
